Where these numbers come from: ChEMBL document CHEMBL1126323

protocol.description: Inhibition of c-AMP dependent protein kinase A (PKA) in bovine heart
measure: IC50
The answer should read as a number with its unit following.

Recorded results for 5 compounds are shown here.
- structure.string: "Cn1cc(C2=C(c3cn(CCCCCO)c4ccccc34)C(=O)NC2=O)c2ccccc21"
  IC50: "21.3 µM"
- structure.string: "Cn1cc(C2=C(c3cn(CCCCN)c4ccccc34)C(=O)NC2=O)c2ccccc21"
  IC50: "9.3 µM"
- structure.string: "Cn1cc(C2=C(c3cn(CCCCCN)c4ccccc34)C(=O)NC2=O)c2ccccc21"
  IC50: "10.4 µM"
- structure.string: "Cn1cc(C2=C(c3cn(CCC[N+](C)(C)C)c4ccccc34)C(=O)NC2=O)c2ccccc21"
  IC50: "64.5 µM"
- structure.string: "Cn1cc(C2=C(c3cn(CCCCC(=N)N)c4ccccc34)C(=O)NC2=O)c2ccccc21"
  IC50: "7.4 µM"

GET /values?readout=IC50&item= `Cn1cc(C2=C(c3cn(CCN)c4ccccc34)C(=O)NC2=O)c2ccccc21`
8.9 µM

Try this compound next: `Cn1cc(C2=C(c3cn(CCO)c4ccccc34)C(=O)NC2=O)c2ccccc21`
22.1 µM

Try this compound next: `Cn1cc(C2=C(c3cn(CCCO)c4ccccc34)C(=O)NC2=O)c2ccccc21`
14.2 µM

Try this compound next: `CNCCCn1cc(C2=C(c3cn(C)c4ccccc34)C(=O)NC2=O)c2ccccc21`
11.9 µM

====

experimental.system: Protein kinase C (PKC)
protocol.description: Inhibition of protein kinase C (PKC) in rat brain
Type: tissue-based
Readings of IC50 for the listed compounds

Recorded results for 3 compounds are shown here.
- structure.string: "CN(C)CCCn1cc(C2=C(c3cn(C)c4ccccc34)C(=O)NC2=O)c2ccccc21"
  IC50: "45 nM"
- structure.string: "Cn1cc(C2=C(c3cn(CCC/N=C(\\N)N[N+](=O)[O-])c4ccccc34)C(=O)NC2=O)c2ccccc21"
  IC50: "26 nM"
- structure.string: "Cn1cc(C2=C(c3cn(CCCCC(=N)N)c4ccccc34)C(=O)NC2=O)c2ccccc21"
  IC50: "31 nM"

GET /values?readout=IC50&item= `Cn1cc(C2=C(c3cn(CCCCCO)c4ccccc34)C(=O)NC2=O)c2ccccc21`
280 nM

Try this compound next: `Cn1cc(C2=C(c3cn(CCCCSC(=N)N)c4ccccc34)C(=O)NC2=O)c2ccccc21`
28 nM

Try this compound next: `Cn1cc(C2=C(c3cn(CCCCO)c4ccccc34)C(=O)NC2=O)c2ccccc21`
170 nM

Try this compound next: `Cn1cc(C2=C(c3cn(CCCO)c4ccccc34)C(=O)NC2=O)c2ccccc21`
130 nM

Try this compound next: `Cn1cc(C2=C(c3cn(CCSC(=N)N)c4ccccc34)C(=O)NC2=O)c2ccccc21`
41 nM

Try this compound next: `Cn1cc(C2=C(c3cn(CCCN=C(N)N)c4ccccc34)C(=O)NC2=O)c2ccccc21`
19 nM

====

Readings of pIC50 for the listed molecules
protocol.description: Inhibition of c-AMP dependent protein kinase A (PKA) in bovine heart
Reminder that pIC50 means the negative base-10 logarithm of the concentration expressed in mol/L.

Recorded results for 3 molecules are shown here.
- structure.string: "Cn1cc(C2=C(c3cn(CCCN)c4ccccc34)C(=O)NC2=O)c2ccccc21"
  pIC50: 5.28
- structure.string: "Cn1cc(C2=C(c3cn(CCCCO)c4ccccc34)C(=O)NC2=O)c2ccccc21"
  pIC50: 4.74
- structure.string: "Cn1cc(C2=C(c3cn(CCCN=C(N)N)c4ccccc34)C(=O)NC2=O)c2ccccc21"
  pIC50: 5.54

GET /values?readout=pIC50&item= `CN(C)CCCn1cc(C2=C(c3cn(C)c4ccccc34)C(=O)NC2=O)c2ccccc21`
4.59

====

protocol.description: Inhibition of protein kinase A (PKA) in bovine heart
measure: log10 of IC50 (log10 of the value in µM)
All values: base-10 log of IC50 in µM.

- molecule: "Cn1cc(C2=C(c3cn(CCSC(=N)N)c4ccccc34)C(=O)NC2=O)c2ccccc21"
  log10 of IC50: 1.08

GET /values?readout=log10 of IC50&item= Cn1cc(C2=C(c3cn(CCCSC(=N)N)c4ccccc34)C(=O)NC2=O)c2ccccc21 [BISINDOLYLMALEIMIDE IX]
-0.05

Try this molecule next: `Cn1cc(C2=C(c3cn(CCCCCSC(=N)N)c4ccccc34)C(=O)NC2=O)c2ccccc21`
0.66

Try this molecule next: `Cn1cc(C2=C(c3cn(CCC/N=C(\N)N[N+](=O)[O-])c4ccccc34)C(=O)NC2=O)c2ccccc21`
0.69

Try this molecule next: `Cn1cc(C2=C(c3cn(CCCCSC(=N)N)c4ccccc34)C(=O)NC2=O)c2ccccc21`
0.43

====

Readings of IC50 for the listed compounds
experimental.system: Protein kinase C (PKC)
protocol.description: Inhibition of protein kinase C (PKC) in rat brain
Assay type: tissue-based
The answer should read as a number with its unit following.

Recorded results for 8 compounds are shown here.
- compound: "Cn1cc(C2=C(c3cn(CCCN)c4ccccc34)C(=O)NC2=O)c2ccccc21"
  IC50: "0.075 µM"
- compound: "Cn1cc(C2=C(c3cn(CCO)c4ccccc34)C(=O)NC2=O)c2ccccc21"
  IC50: "0.34 µM"
- compound: "Cn1cc(C2=C(c3cn(CCCCCN)c4ccccc34)C(=O)NC2=O)c2ccccc21"
  IC50: "0.076 µM"
- compound: "Cn1cc(C2=C(c3cn(CCCCN)c4ccccc34)C(=O)NC2=O)c2ccccc21"
  IC50: "0.055 µM"
- compound: "Cn1cc(C2=C(c3cn(CCCSC(=N)N)c4ccccc34)C(=O)NC2=O)c2ccccc21 [BISINDOLYLMALEIMIDE IX]"
  IC50: "0.01 µM"
- compound: "Cn1cc(C2=C(c3cn(CCC[N+](C)(C)C)c4ccccc34)C(=O)NC2=O)c2ccccc21"
  IC50: "0.093 µM"
- compound: "Cn1cc(C2=C(c3cn(CCCCCSC(=N)N)c4ccccc34)C(=O)NC2=O)c2ccccc21"
  IC50: "0.047 µM"
- compound: "CNCCCn1cc(C2=C(c3cn(C)c4ccccc34)C(=O)NC2=O)c2ccccc21"
  IC50: "0.035 µM"

GET /values?readout=IC50&item= `Cn1cc(C2=C(c3cn(CCN)c4ccccc34)C(=O)NC2=O)c2ccccc21`
0.064 µM
